biological target: Hck (UniProt P08631); experiment: phosphorylation enrichment, bacterial display (enrichment ratio); higher = better substrate or ligand; peptides without Tyr show the background
Sequence (P08631 whole entry, looked up): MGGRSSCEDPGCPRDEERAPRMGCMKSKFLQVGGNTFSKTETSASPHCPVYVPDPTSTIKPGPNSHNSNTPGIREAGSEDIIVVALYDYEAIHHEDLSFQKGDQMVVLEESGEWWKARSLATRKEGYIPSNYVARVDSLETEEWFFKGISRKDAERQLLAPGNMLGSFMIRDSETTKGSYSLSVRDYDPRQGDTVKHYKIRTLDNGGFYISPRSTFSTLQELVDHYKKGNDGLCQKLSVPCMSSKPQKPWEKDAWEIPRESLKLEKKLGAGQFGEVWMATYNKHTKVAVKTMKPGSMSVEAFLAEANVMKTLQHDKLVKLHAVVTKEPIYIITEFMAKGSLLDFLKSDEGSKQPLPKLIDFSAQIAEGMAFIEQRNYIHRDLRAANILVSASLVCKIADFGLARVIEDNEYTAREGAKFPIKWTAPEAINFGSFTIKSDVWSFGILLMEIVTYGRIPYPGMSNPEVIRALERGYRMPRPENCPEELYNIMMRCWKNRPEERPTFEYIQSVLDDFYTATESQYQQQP
Each item that follows carries a reported phosphorylation enrichment.
Reply with just the number.

BIOPOLYMER_SEQUENCE	phosphorylation enrichment
AEPTGYSAELS [EZR_Y499]	0.616
SVTCTYCPALN [TP53_Y126_S127C]	0.495

# next sequence below
Ask: Test system Hck (UniProt P08631); read-out phosphorylation enrichment; what value for NSNAAYEESHF [LRIF1_Y714_Q716E] ?
Result: 0.496

----------
Each item that follows carries a reported phosphorylation enrichment.
system: c-Src; assay: phosphorylation enrichment, bacterial display (enrichment ratio); higher = better substrate or ligand; peptides without Tyr show the background

BIOPOLYMER_SEQUENCE	MEASURED_METRIC	VAL
AHAGEYGAGAL [HBA1_Y25_E28G]	phosphorylation enrichment	0.489

# next sequence below
Ask: Name the recorded phosphorylation enrichment for PELINYHQHYS [BTK_Y361_N365Y] .
Result: 0.5

----------
molecular target: FGFR1 (UniProt P11362); assay: phosphorylation enrichment, bacterial display (enrichment ratio); higher = better substrate or ligand; peptides without Tyr show the background
Sequence (P11362 whole entry, looked up): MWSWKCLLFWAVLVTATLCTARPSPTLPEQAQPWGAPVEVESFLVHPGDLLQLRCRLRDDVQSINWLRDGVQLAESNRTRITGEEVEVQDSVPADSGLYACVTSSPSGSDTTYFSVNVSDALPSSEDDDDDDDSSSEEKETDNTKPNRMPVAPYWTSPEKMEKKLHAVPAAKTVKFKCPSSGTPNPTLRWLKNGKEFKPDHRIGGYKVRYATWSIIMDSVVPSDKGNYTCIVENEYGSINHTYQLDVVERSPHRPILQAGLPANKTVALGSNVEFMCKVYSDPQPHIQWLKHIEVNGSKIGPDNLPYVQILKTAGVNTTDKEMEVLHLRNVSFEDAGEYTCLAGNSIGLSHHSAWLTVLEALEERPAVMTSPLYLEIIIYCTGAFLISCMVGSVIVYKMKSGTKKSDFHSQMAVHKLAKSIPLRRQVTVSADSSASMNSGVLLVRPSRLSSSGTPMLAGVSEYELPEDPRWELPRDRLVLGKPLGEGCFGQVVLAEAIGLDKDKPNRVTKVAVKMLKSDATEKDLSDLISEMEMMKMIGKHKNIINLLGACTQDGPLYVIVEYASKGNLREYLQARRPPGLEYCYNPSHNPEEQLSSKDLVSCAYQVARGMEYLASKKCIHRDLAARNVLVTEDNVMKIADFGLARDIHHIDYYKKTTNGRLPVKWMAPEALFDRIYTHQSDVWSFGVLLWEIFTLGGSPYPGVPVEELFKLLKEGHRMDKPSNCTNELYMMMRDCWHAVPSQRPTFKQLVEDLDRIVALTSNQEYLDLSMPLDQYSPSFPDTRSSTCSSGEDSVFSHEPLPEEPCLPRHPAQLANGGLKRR
Each item that follows carries a reported phosphorylation enrichment.

Ask: Name the recorded phosphorylation enrichment for AAVDTVCRHNF [HLA-DRB1_Y107_Y107V_YF] .
Result: 0.499

Ask: Name the recorded phosphorylation enrichment for QLHREYCLSPR [HJURP_Y445] .
Result: 0.898

Ask: Name the recorded phosphorylation enrichment for REQREYLEQLN [CCDC88B_Y1277_D1279E] .
Result: 0.611

Ask: Name the recorded phosphorylation enrichment for ITVCDYTNPCT [MYD88_Y276] .
Result: 0.521

Ask: Name the recorded phosphorylation enrichment for HVSISYDIPPT [GAB1_Y307] .
Result: 0.677

Ask: Name the recorded phosphorylation enrichment for DHPSEYAARQL [ANXA13_Y90_R86H] .
Result: 0.496

Ask: Name the recorded phosphorylation enrichment for TEQDPYNSIVR [MMUT_Y364_N366S] .
Result: 0.697

----------
molecular target: FGFR1 (UniProt P11362); test: phosphorylation enrichment, bacterial display (enrichment ratio); higher = better substrate or ligand; peptides without Tyr show the background
MEASURED_METRIC: phosphorylation enrichment
Reply with just the number.

Worked cases, answers included:
BIOPOLYMER_SEQUENCE	MEASURED_ON	phosphorylation enrichment
MSRNLYSGDCY [DDR2_Y736_Y740C]	FGFR1 (UniProt P11362)	0.951
SVVVPYEPAEV [TP53_Y220_P223A]	FGFR1 (UniProt P11362)	0.566
GSERRYSREGG [PTPRN2_Y139]	FGFR1 (UniProt P11362)	0.4

# next sequence below
Ask: Name the recorded phosphorylation enrichment for SISLKYEGRVY [ABL1_Y167_R166K] .
Result: 0.51

----------
Each item that follows carries a reported phosphorylation enrichment.
tested on: c-Abl (mouse); test: phosphorylation enrichment, bacterial display (enrichment ratio); higher = better substrate or ligand; peptides without Tyr show the background

Worked cases, answers included:
BIOPOLYMER_SEQUENCE	VAL
QYQLKYSETPF [SIX6OS1_Y129]	0.808
ALWYIYSHTRS [ENG_Y614]	0.807
RHFTGYRIELQ [INSR_Y818]	0.805
SSVPDYLAAVD [GLB1_Y154_D151V]	0.801
EEGRVYVFRLS [ITGAE_Y549_YF]	0.812
RAIGHYSATSK [FAM120A_Y328_Y327H]	0.777

# next sequence below
Ask: Name the recorded phosphorylation enrichment for KFLENYFDLKK [MMP3_Y41_YF] .
Result: 0.816

----------
Each item that follows carries a reported SH2 binding enrichment.
biological target: c-Src SH2; assay: SH2 binding enrichment of the phosphorylated peptide, bacterial display (enrichment ratio); higher = better substrate or ligand; peptides without Tyr show the background
Reply with just the number.

BIOPOLYMER_SEQUENCE	MEASURED_ON	VAL
GGMTEYKLVVV [KRAS_Y4]	c-Src SH2	0.649
HFGNNYRDVLQ [MACC1_Y803_YF]	c-Src SH2	0.472
LSNPAYRLLLA [DDR1_Y513]	c-Src SH2	0.582
NARGLYYKLHN [GATA2_Y376_C373R]	c-Src SH2	1.23
LQEQNYLAVDS [FAM114A1_Y115]	c-Src SH2	0.644

# next sequence below
Ask: Name the recorded SH2 binding enrichment for TFLRTYTDTMQ [TSPAN7_Y124_A127T] .
Result: 0.591

----------
target: Jak2 (UniProt O60674); assay: phosphorylation enrichment, bacterial display (enrichment ratio); higher = better substrate or ligand; peptides without Tyr show the background
Sequence (O60674 whole entry, looked up): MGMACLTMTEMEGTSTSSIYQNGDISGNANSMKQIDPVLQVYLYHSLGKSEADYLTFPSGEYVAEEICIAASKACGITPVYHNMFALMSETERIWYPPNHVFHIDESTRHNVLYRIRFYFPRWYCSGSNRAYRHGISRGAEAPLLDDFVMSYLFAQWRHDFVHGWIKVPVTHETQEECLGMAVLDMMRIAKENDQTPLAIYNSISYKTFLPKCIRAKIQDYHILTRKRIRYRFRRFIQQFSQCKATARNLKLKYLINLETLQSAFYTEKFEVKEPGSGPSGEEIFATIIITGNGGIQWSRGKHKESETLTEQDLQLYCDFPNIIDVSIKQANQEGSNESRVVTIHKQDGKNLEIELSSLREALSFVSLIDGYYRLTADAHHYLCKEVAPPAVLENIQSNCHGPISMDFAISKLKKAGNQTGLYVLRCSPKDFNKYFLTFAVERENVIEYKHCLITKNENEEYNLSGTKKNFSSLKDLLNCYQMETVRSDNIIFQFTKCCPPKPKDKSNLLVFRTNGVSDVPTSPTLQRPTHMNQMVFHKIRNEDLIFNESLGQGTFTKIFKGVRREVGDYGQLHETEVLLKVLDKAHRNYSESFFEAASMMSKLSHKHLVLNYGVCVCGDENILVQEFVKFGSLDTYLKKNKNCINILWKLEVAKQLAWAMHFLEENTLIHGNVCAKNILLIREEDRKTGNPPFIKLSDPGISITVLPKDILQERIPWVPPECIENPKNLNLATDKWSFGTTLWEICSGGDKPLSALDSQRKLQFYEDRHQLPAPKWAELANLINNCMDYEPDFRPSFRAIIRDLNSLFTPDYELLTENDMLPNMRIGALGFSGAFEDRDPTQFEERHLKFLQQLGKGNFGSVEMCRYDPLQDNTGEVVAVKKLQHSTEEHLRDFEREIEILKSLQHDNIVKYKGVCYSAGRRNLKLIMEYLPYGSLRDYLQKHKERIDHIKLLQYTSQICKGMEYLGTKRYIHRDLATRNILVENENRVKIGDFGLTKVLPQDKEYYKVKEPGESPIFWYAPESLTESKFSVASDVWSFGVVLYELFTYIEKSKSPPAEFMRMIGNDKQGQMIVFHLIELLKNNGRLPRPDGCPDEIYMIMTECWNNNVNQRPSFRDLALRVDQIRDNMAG
Each item that follows carries a reported phosphorylation enrichment.
Reply with just the number.

Worked cases, answers included:
BIOPOLYMER_SEQUENCE	phosphorylation enrichment
WIPIQDPIISE [NOG_Y222_Y222D]	0.965
DKTGEYPVPLT [ACADM_Y73_I78T]	0.649
ISTAGYSFPEL [EDAR_Y406_I408F]	1.03

Ask: Name the recorded phosphorylation enrichment for DAVCFYRMENA [NPHS2_Y195_I192V_YF] .
Result: 1.22

Ask: Name the recorded phosphorylation enrichment for SIKDKHVTALF [KCNH2_Y611_Y611H_YF] .
Result: 0.441

Ask: Name the recorded phosphorylation enrichment for EVEFQYPFRLH [SYP_Y73_E72Q] .
Result: 1.1

Ask: Name the recorded phosphorylation enrichment for QELRRYLKSGV [MICA_Y194] .
Result: 0.566

Ask: Name the recorded phosphorylation enrichment for HSKGIYFVQLE [MGAT4B_Y262_Q257H_YF] .
Result: 2.27

Ask: Name the recorded phosphorylation enrichment for AGQEGYDRLRP [RAC1_Y64_D63G] .
Result: 0.484

Ask: Name the recorded phosphorylation enrichment for RKKEEYKMALY [F8_Y1990] .
Result: 0.477

Ask: Name the recorded phosphorylation enrichment for FEPDAYDDLDQ [ELP5_Y302_YF] .
Result: 1.27

Ask: Name the recorded phosphorylation enrichment for GHLYAYDWIRI [BEST1_Y227_S231R] .
Result: 0.941

----------
target: c-Src SH2; assay: SH2 binding enrichment of the phosphorylated peptide, bacterial display (enrichment ratio); higher = better substrate or ligand; peptides without Tyr show the background
Decide using SH2 binding enrichment: a value greater than or equal to 0.5 is 1, a smaller one is 0.

BIOPOLYMER_SEQUENCE	MEASURED_ON	CLASS
ASKEPYYVHCI [MYO1D_Y585_R588H]	c-Src SH2	1
PGVDIYISPNM [PADI3_Y51]	c-Src SH2	0
EDKFMYSEFPQ [PTEN_Y240_F241S]	c-Src SH2	1
KIIRWYVSSEG [ANK2_Y3907_R3906W]	c-Src SH2	1
WASSSYRETPS [SORBS1_Y79_R74W]	c-Src SH2	0

Ask: Determine whether measured SH2 binding enrichment meets or exceeds 0.5 for EFGFRYELVQF [UGGT2_Y1289_Y1285F_YF]
Result: 1

Ask: Determine whether measured SH2 binding enrichment meets or exceeds 0.5 for ALWYIYSHTRS [ENG_Y614]
Result: 0

Ask: Determine whether measured SH2 binding enrichment meets or exceeds 0.5 for QAIDEYEKWLE [MAP9_Y603_N601D]
Result: 0

----------
molecular target: SHP2-C SH2; test: SH2 binding enrichment of the phosphorylated peptide, bacterial display (enrichment ratio); higher = better substrate or ligand; peptides without Tyr show the background
Label scheme for SH2 binding enrichment: LOW (below 0.6), MEDIUM (0.6 to below 0.8), HIGH (0.8 or more)

Would you please look over these solved cases?
BIOPOLYMER_SEQUENCE	CLASS
DRLASYLDKMR [KRT17_Y98_V102M]	LOW
LGGSPYPRVPV [FGFR1_Y701_G703R]	HIGH
ASKEPYFVRCI [MYO1D_Y585_YF]	LOW
SKAFAYVHFDS [PABPC5_Y149_G146A_YF]	HIGH
MGRVNYGAYIN [GLB1_Y485]	HIGH
REVKAYGAGLL [TH_Y419_G414R]	MEDIUM

Ask: State the class of the sequence shown: NDDDVYRSLEE [VAV2_Y142]
Result: MEDIUM

Ask: State the class of the sequence shown: VGQRPYRPLPE [REEP3_Y170_Q171R]
Result: MEDIUM

Ask: State the class of the sequence shown: REQREYLEQLN [CCDC88B_Y1277_D1279E]
Result: MEDIUM

Ask: State the class of the sequence shown: TTKGAYSLSIR [YES1_Y194]
Result: LOW

----------
target: c-Src SH2; assay: SH2 binding enrichment of the phosphorylated peptide, bacterial display (enrichment ratio); higher = better substrate or ligand; peptides without Tyr show the background
MEASURED_METRIC: SH2 binding enrichment
Reply with just the number.

Worked cases, answers included:
BIOPOLYMER_SEQUENCE	VAL
REIHDYIKHLG [UNC13C_Y308_D304E]	0.512
RGNKEYKEEKR [LENG1_Y96_E97K]	0.975
MSSLFYANTLF [HOXB7_Y6_YF]	0.509

# next sequence below
Ask: Test system c-Src SH2; read-out SH2 binding enrichment; what value for RHLQEYQDPLN [GFAP_Y349_L352P] ?
Result: 0.645
